Each record here notes measured Plant response rating, Ryegrass, Italian.
system: ryegrass, Italian (Lolium multiflorum); test: Test A postemergence, Italian ryegrass; assay type: in vivo; conditions: 500 g ai/ha, visual injury, 0 to 100 scale (0 no effect, 100 complete control), approximately 10 days
observable: Plant response rating, Ryegrass, Italian

>>> value_measured("O=C1NCC(c2cccc(Oc3ccc(F)cn3)c2)C1C(=O)Nc1ccccc1F (single isomer, unassigned) [Compound 49]")
50
>>> value_measured("O=C1NCC(c2cccc(OCC3CC3)c2)C1C(=O)Nc1ccccc1Cl (centres unmarked) [Compound 4]")
40
>>> value_measured("O=C1NCC(c2cccc(COc3ccccc3)c2)C1C(=O)Nc1ccc(F)cc1F (centres unmarked) [Compound 20]")
0
>>> value_measured("O=C1NCC(c2cccc(OCc3ccccc3)c2)C1C(=O)Nc1ccccc1Cl (centres unmarked) [Compound 67]")
0
>>> value_measured("O=C1NCC(c2ccccc2Cn2ccc(C(F)(F)F)n2)C1C(=O)Nc1cccc(F)c1F (centres unmarked) [Compound 57]")
0
>>> value_measured("O=C1NCC(c2cccc(OCC3CC3)c2)C1C(=O)Nc1ccc(F)cc1F (centres unmarked) [Compound 3]")
30
>>> value_measured("CN(C)N=Cc1cccc(C2CN(C)C(=O)C2C(=O)Nc2ccccc2F)c1 (centres unmarked) [Compound 54]")
0
>>> value_measured("O=C1NCC(c2cccc(COc3ccccc3)c2)C1C(=O)Nc1ccccc1F (centres unmarked) [Compound 19]")
0

###

tested on: foxtail, giant (Setaria faberii); assay: Test A preemergence, giant foxtail; format: in vivo; conditions: 125 g ai/ha, 0 to 100 scale (0 no effect, 100 complete control)
Each record here notes measured Plant response rating, Foxtail, Giant.
observable: Plant response rating, Foxtail, Giant

>>> value_measured("CN1CC(c2cccc(Oc3ccc(F)cn3)c2)C(C(=O)Nc2cccc(C#N)c2F)C1=O (single isomer, unassigned)")
90
>>> value_measured("O=C1NCC(c2cccc(Cn3cncn3)c2)C1C(=O)Nc1cccc(F)c1F (centres unmarked)")
0
>>> value_measured("O=C1NCC(c2cccc(COc3ccccc3)c2)C1C(=O)Nc1ccccc1Cl (centres unmarked)")
0
>>> value_measured("O=C1NCC(c2cccc(COc3ccccc3)c2)C1C(=O)Nc1ccc(F)cc1F (centres unmarked)")
30
>>> value_measured("O=C1NCC(c2cccc(OCc3ccccc3)c2)C1C(=O)Nc1ccc(F)cc1F (centres unmarked)")
0
>>> value_measured("O=C1NCC(c2cccc(OCc3ccccc3)c2)C1C(=O)Nc1ccc(F)c(F)c1F (centres unmarked)")
0
>>> value_measured("O=C1NCC(c2cccc(Oc3ncc(F)cn3)c2)C1C(=O)Nc1ccccc1F (single isomer, unassigned)")
90
>>> value_measured("O=C1NCC(c2cccc(OCC3OCCO3)c2)C1C(=O)Nc1ccccc1F (centres unmarked)")
80

###

test system: blackgrass (Alopecurus myosuroides); experiment: Test A postemergence, blackgrass; assay type: in vivo; conditions: 125 g ai/ha, visual injury, 0 to 100 scale (0 no effect, 100 complete control), approximately 10 days
observable: Plant response rating, Blackgrass

>>> value_measured("CN1CC(c2cccc(Oc3ccc(C(F)(F)F)cn3)c2)C(C(=O)Nc2cccc(F)c2F)C1=O (single isomer, unassigned)")
30
>>> value_measured("CN1CC(c2cccc(Sc3ccccc3)c2)C(C(=O)Nc2ccccc2F)C1=O (single isomer, unassigned)")
0
>>> value_measured("O=C1NCC(c2cccc(Cn3cccn3)c2)C1C(=O)Nc1cccc(F)c1F (stereo not shown)")
0
>>> value_measured("O=C1NCC(c2ccccc2Cn2ccc(C(F)(F)F)n2)C1C(=O)Nc1ccccc1F (stereo not shown)")
0
>>> value_measured("CN(C)N=Cc1cccc(C2CN(C)C(=O)C2C(=O)Nc2ccccc2F)c1 (stereo not shown)")
0
>>> value_measured("O=C1NCC(c2cccc(OCc3ccco3)c2)C1C(=O)Nc1ccccc1F (stereo not shown)")
0
>>> value_measured("CN1CC(c2cccc(Oc3ccc(F)cn3)c2)C(C(=O)Nc2cccc(C#N)c2F)C1=O (single isomer, unassigned)")
0
>>> value_measured("O=C1NCC(c2cccc(Oc3ncc(F)cc3F)c2)C1C(=O)Nc1cccc(F)c1F (single isomer, unassigned)")
0
>>> value_measured("C[Si](C)(C)C#Cc1cccc(C2CNC(=O)C2C(=O)Nc2cccc(F)c2F)c1 (stereo not shown)")
0
>>> value_measured("O=C1NCC(c2cccc(Cn3ccc(C(F)(F)F)n3)c2)C1C(=O)Nc1ccc(F)c(F)c1F (stereo not shown)")
0
>>> value_measured("O=C1NCC(c2cccc(Oc3ncc(Cl)cn3)c2)C1C(=O)Nc1cccc(F)c1F (stereo not shown)")
0
>>> value_measured("CN1CC(c2cccc(OC(F)(F)C(F)OC(F)(F)F)c2)C(C(=O)Nc2cccc(F)c2F)C1=O (stereo not shown)")
0
>>> value_measured("O=C1NCC(c2cccc(Oc3ccccn3)c2)C1C(=O)Nc1ccc(F)c(F)c1F (stereo not shown)")
0
>>> value_measured("CN1CC(c2cccc(Oc3ncc(F)cc3F)c2)C(C(=O)Nc2ccc(F)c(F)c2F)C1=O (single isomer, unassigned)")
20
>>> value_measured("O=C1NCC(c2cccc(Oc3ncc(Cl)cn3)c2)C1C(=O)Nc1ccccc1F (stereo not shown)")
0
>>> value_measured("CC1(COc2cccc(C3CNC(=O)C3C(=O)Nc3ccccc3F)c2)COC1 (stereo not shown)")
0
>>> value_measured("CN1CC(c2cccc(Oc3ccc(F)cc3)c2)C(C(=O)Nc2ccccc2F)C1=O (single isomer, unassigned)")
30
>>> value_measured("CN1CC(c2cccc(Oc3ccc(C(F)(F)F)cn3)c2)C(C(=O)Nc2ccccc2F)C1=O (single isomer, unassigned)")
30
>>> value_measured("O=C1NCC(c2cccc(OCC3CC3)c2)C1C(=O)Nc1ccccc1F (stereo not shown)")
0
>>> value_measured("O=C1NCC(c2cccc(Oc3ccc(F)cn3)c2)C1C(=O)Nc1cccc(F)c1F (single isomer, unassigned)")
30
>>> value_measured("O=C1NCC(c2cccc(Oc3ccccn3)c2)C1C(=O)Nc1ccccc1F (stereo not shown)")
0
>>> value_measured("O=C1NCC(c2cccc(OCc3ccccc3)c2)C1C(=O)Nc1ccc(F)c(F)c1F (stereo not shown)")
0
>>> value_measured("O=C1NCC(c2cccc(Cn3cccn3)c2)C1C(=O)Nc1ccc(F)cc1F (stereo not shown)")
0
>>> value_measured("O=C1NCC(c2cccc(COc3ccccc3)c2)C1C(=O)Nc1ccccc1Cl (stereo not shown)")
0
>>> value_measured("O=C1NCC(c2cccc(Oc3ccccn3)c2)C1C(=O)Nc1ccccc1Cl (stereo not shown)")
0
>>> value_measured("O=C1NCC(c2ccccc2Cn2ccc(C(F)(F)F)n2)C1C(=O)Nc1ccc(F)c(F)c1F (stereo not shown)")
0
>>> value_measured("CN1CC(c2cccc(Oc3ccc(F)cn3)c2)C(C(=O)Nc2cccc(F)c2C#N)C1=O (single isomer, unassigned)")
20
>>> value_measured("CN1CC(c2cccc(OC(F)(F)C(F)OC(F)(F)F)c2)C(C(=O)Nc2ccccc2F)C1=O (stereo not shown)")
0
>>> value_measured("O=C1NCC(c2cccc(OCc3ccco3)c2)C1C(=O)Nc1ccccc1Cl (stereo not shown)")
0
>>> value_measured("O=C1NCC(c2cccc(Cn3cccn3)c2)C1C(=O)Nc1ccccc1Cl (stereo not shown)")
0
>>> value_measured("O=C1NCC(c2ccccc2Cn2ccc(C(F)(F)F)n2)C1C(=O)Nc1cccc(F)c1F (stereo not shown)")
0
